System Tested: Neuropeptide Y receptor type 1 (Homo sapiens); note: assay procedure not described here
Sequence (P25929 whole entry): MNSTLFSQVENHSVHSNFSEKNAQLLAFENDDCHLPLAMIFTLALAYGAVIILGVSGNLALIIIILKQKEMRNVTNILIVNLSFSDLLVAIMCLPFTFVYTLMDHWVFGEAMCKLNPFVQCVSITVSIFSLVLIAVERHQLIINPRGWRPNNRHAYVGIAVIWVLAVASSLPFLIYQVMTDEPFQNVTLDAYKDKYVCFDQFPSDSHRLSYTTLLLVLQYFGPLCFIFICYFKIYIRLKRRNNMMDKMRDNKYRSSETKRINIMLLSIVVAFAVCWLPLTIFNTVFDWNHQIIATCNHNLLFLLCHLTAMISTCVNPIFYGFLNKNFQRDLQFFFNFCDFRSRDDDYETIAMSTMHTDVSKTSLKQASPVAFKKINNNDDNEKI
Study Conditions: read-out: AC50; note: assay procedure not described here
Kindly state AC50 for each of the entries shown.

Molecule: CCOC(=O)C1=C(C)NC(C)=C(C(=O)OC)C1c1cccc([N+](=O)[O-])c1 (centres undefined) [NITRENDIPINE]
AC50: > 30 µM

Provide reported AC50 for each item, in the same order as listed.
1. Cc1cccc(N2CC(CO)OC2=O)c1 (centres undefined) [TOLOXATONE]
2. O=C1C(CC[S+]([O-])c2ccccc2)C(=O)N(c2ccccc2)N1c1ccccc1 (centres undefined) [SULFINPYRAZONE]
3. Cc1cc(C(C)(C)C)cc(C)c1CC1=NCCN1 [XYLOMETAZOLINE]
4. Cn1c(=O)cc(N2CCC[C@@H](N)C2)n(Cc2ccccc2C#N)c1=O [ALOGLIPTIN]
5. O=C1CN=C(c2ccccc2)c2cc([N+](=O)[O-])ccc2N1 [NITRAZEPAM]
6. CNCc1ccc(-c2[nH]c3cc(F)cc4c3c2CCNC4=O)cc1 [RUCAPARIB]
7. C[C@H](Cc1ccc(O)c(O)c1)[C@@H](C)Cc1ccc(O)c(O)c1 [MASOPROCOL]
8. CCCCCCCCCCCCCCCCCCCCCC(=O)Nc1ccn([C@@H]2O[C@H](CO)[C@@H](O)[C@@H]2O)c(=O)n1 [ENOCITABINE]

A.
> 30 µM
> 10 µM
> 30 µM
> 30 µM
> 10 µM
> 30 µM
> 10 µM
> 30 µM

Value sought for every listed molecule: AC50.
1. CCOC(=O)c1cncn1[C@H](C)c1ccccc1 [ETOMIDATE]
2. CC(CCc1ccc(O)cc1)NCCc1ccc(O)c(O)c1 (centres undefined) [DOBUTAMINE]

A.
1: > 10 µM; 2: > 30 µM

State the recorded AC50 for every item in the following list.
1. CC(N)C12CC3CC(CC(C3)C1)C2 (centres undefined) [RIMANTADINE]
2. O=C(O)c1ccccc1Nc1cc(Cl)ccc1C(=O)O [LOBENZARIT]

A.
1: > 10 µM; 2: > 30 µM

###

System Tested: UniProt:P11229
Sequence (P11229 whole entry): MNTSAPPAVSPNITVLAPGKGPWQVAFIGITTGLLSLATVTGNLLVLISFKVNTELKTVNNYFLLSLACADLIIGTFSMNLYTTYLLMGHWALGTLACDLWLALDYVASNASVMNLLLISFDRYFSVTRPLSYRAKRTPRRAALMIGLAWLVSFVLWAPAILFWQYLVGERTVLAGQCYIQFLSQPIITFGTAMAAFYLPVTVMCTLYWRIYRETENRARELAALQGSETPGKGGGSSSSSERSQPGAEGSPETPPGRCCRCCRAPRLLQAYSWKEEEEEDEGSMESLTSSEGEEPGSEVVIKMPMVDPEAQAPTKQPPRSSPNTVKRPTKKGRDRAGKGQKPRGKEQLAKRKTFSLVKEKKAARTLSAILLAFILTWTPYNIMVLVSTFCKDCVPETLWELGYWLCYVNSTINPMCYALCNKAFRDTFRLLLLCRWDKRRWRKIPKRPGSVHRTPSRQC
Format: functional
Assignment: determine reported AC50 for the given compounds.

Take a look at these entries with their results.
Compound: OC[C@H]1O[C@@](CO)(O[C@H]2O[C@H](CO)[C@@H](O)[C@H](O)[C@H]2O)[C@@H](O)[C@@H]1O
System Tested: UniProt:P11229
Result: > 30 µM
--
Compound: CCN(CC)C(=O)Nc1ccc(OCC(O)CNC(C)(C)C)c(C(C)=O)c1 (centres undefined)
System Tested: UniProt:P11229
Result: > 30 µM
--
Compound: COc1ccc2nc3cc(Cl)ccc3c(Nc3cc(CN4CCCC4)c(O)c(CN4CCCC4)c3)c2n1
System Tested: UniProt:P11229
Result: > 30 µM

Each compound below has a recorded value; state its AC50.
1. Oc1ccc2c(c1)CC[C@H](c1ccccc1)[C@@H]2c1ccc(OCCN2CCCC2)cc1
2. CNCc1ccc(-c2[nH]c3cc(F)cc4c3c2CCNC4=O)cc1

A.
1: 11 µM; 2: > 10 µM

Give measured AC50 for every item shown.
1. Cc1ncc2n1-c1ccc(Cl)cc1C(c1ccccc1F)=NC2
2. C[C@]12CC[C@@H]3c4ccc(O)cc4C[C@@H](CCCCCCCCC[S+]([O-])CCCC(F)(F)C(F)(F)F)[C@H]3[C@@H]1CC[C@@H]2O (some centres undefined)
3. CC(C(=O)O)c1ccc2c(c1)[nH]c1ccc(Cl)cc12 (centres undefined)
4. CCCN[C@H]1CCc2nc(N)sc2C1 [PRAMIPEXOLE]

A.
> 10 µM
> 30 µM
> 10 µM
> 10 µM

###

Below are compounds with their AC50 as measured on Sodium-dependent noradrenaline transporter (Homo sapiens, UniProt P23975).
Sequence (P23975 whole entry): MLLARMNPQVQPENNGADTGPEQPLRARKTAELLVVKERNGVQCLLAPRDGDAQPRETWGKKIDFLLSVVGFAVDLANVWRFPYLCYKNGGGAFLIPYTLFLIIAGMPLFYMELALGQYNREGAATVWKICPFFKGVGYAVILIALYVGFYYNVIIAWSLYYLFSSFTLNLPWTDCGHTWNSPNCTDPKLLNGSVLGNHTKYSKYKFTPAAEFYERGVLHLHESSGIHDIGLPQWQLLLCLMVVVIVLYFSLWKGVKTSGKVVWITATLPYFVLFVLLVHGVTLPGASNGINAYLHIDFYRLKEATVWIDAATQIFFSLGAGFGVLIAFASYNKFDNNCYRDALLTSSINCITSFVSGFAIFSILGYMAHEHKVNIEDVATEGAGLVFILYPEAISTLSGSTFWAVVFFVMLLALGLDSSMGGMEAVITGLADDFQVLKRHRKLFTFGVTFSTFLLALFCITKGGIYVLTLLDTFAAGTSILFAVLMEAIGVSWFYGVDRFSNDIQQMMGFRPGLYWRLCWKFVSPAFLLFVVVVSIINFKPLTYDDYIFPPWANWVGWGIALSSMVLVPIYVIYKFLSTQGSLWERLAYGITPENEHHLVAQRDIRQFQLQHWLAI

Compound: Cc1onc(-c2ccccc2)c1-c1ccc(S(N)(=O)=O)cc1 [VALDECOXIB]
AC50: 2.31 µM
//
Compound: CC1=C(/C=C/C(C)=C/C=C/C(C)=C/C(=O)O)C(C)(C)CCC1 [TRETINOIN]
AC50: 10.5 µM
//
Compound: CC(C)Cc1ccc(C(C)C(=O)O)cc1 (stereo not drawn) [IBUPROFEN]
AC50: > 30 µM
//
Compound: CN1CCC(=C2c3ccccc3Sc3ccccc32)CC1 [PIMETHIXENE]
AC50: 0.142 µM
//
Compound: O=C1/C(=C2\Nc3ccc(S(=O)(=O)O)cc3C2=O)Nc2ccc(S(=O)(=O)O)cc21 [INDIGOTINDISULFONATE]
AC50: > 30 µM

For the 3 compounds below, give their AC50 values.
1. O=C(O)c1cc(/N=N/c2ccc(O)c(C(=O)O)c2)ccc1O [OLSALAZINE]
2. C[C@]1(Cn2ccnn2)[C@H](C(=O)O)N2C(=O)C[C@H]2S1(=O)=O [TAZOBACTAM]
3. COc1ccc(CN(CCN(C)C)c2ccccn2)cc1 [PYRILAMINE]

A.
["> 30 µM", "> 30 µM", "> 30 µM"]

###

Adenosine receptor A3 (Homo sapiens, UniProt P0DMS8): recorded AC50 for assorted compounds; note: assay procedure not described here
Sequence (P0DMS8 whole entry): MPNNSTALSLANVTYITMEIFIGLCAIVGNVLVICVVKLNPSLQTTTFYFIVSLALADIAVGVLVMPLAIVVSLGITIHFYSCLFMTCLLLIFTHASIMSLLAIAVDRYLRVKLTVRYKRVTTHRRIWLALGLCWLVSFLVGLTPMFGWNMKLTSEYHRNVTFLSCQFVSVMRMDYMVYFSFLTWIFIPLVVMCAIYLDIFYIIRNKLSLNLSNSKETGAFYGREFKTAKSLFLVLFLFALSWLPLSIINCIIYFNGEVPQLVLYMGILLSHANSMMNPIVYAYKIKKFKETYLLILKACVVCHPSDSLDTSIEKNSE

Provide AC50 for all items below, preserving their order.
1. Cc1cc(C(C)(C)C)cc(C)c1CC1=NCCN1
2. CC(C(=O)O)c1ccc2c(c1)[nH]c1ccc(Cl)cc12 (stereo not drawn)
3. CCCC(CCC)C(=O)O

A.
["> 30 µM", "> 30 µM", "> 30 µM"]

###

System Tested: D(3) dopamine receptor (Homo sapiens, UniProt P35462); note: assay procedure not described here
Sequence (P35462 whole entry): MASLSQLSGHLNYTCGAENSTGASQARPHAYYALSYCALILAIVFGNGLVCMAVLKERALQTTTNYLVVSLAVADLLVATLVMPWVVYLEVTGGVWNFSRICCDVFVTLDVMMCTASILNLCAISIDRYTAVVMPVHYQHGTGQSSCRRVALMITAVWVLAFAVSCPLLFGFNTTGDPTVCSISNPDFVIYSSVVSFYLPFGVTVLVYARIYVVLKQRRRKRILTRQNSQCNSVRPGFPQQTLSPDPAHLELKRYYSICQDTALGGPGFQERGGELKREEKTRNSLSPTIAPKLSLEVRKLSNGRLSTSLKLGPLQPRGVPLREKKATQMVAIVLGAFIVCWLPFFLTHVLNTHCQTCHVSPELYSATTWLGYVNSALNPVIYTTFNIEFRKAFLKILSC
Please provide measured AC50 for the entries that follow.

Recorded AC50, per entry:
Molecule: CCOC(=O)O[C@]1(C(=O)OCCl)CC[C@H]2[C@@H]3CCC4=CC(=O)C=C[C@]4(C)[C@H]3[C@@H](O)C[C@@]21C [LOTEPREDNOL ETABONATE]
System Tested: D(3) dopamine receptor (Homo sapiens, UniProt P35462); note: assay procedure not described here
AC50: > 30 µM

Molecule: Cn1c(=O)cc(N2CCC[C@@H](N)C2)n(Cc2ccccc2C#N)c1=O [ALOGLIPTIN]
System Tested: D(3) dopamine receptor (Homo sapiens, UniProt P35462); note: assay procedure not described here
AC50: > 10 µM

Moving on to another molecule below.
In plain terms, `CC(=O)SC[C@@H](C)C(=O)N1CCC[C@H]1C(=O)N[C@@H](Cc1ccccc1)C(=O)O` has a documented AC50 of > 30 µM

###

Answer each item with its documented AC50.
System Tested: Beta-1 adrenergic receptor (Homo sapiens, UniProt P08588); note: assay procedure not described here
Sequence (P08588 whole entry): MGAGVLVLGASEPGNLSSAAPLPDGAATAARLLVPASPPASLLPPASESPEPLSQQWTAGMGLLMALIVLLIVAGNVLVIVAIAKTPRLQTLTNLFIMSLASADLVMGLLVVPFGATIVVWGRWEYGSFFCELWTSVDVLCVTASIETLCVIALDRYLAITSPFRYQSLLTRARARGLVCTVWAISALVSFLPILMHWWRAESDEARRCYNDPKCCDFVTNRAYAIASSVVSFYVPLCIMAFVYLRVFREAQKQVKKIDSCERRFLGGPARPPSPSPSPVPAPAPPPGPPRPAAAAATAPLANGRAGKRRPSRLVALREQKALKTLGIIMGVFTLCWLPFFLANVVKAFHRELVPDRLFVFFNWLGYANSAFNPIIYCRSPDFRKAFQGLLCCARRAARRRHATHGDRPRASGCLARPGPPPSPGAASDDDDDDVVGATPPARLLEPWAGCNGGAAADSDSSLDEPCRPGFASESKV
Assay type: functional

Compound: CC(=O)N[C@@H](CS)C(=O)O
Property: AC50
Result: > 30 µM

Compound: CCN(CC)C(=O)Nc1ccc(OCC(O)CNC(C)(C)C)c(C(C)=O)c1 (stereo not drawn)
Property: AC50
Result: 0.076 µM

Compound: O=C1CCc2cc(OCCCCc3nnnn3C3CCCCC3)ccc2N1
Property: AC50
Result: > 30 µM

Compound: COc1cc2nc(N3CCN(C(=O)C4CCCO4)CC3)nc(N)c2cc1OC (stereo not drawn)
Property: AC50
Result: > 10 µM

Compound: CNC1=Nc2ccc(Cl)cc2C(c2ccccc2)=[N+]([O-])C1 [CHLORDIAZEPOXIDE]
Property: AC50
Result: > 10 µM

Compound: CCCCC1C(=O)N(c2ccccc2)N(c2ccccc2)C1=O
Property: AC50
Result: > 10 µM

Compound: C[C@]12C=CC(=O)N[C@@H]1CC[C@@H]1[C@@H]2CC[C@]2(C)[C@@H](C(=O)Nc3cc(C(F)(F)F)ccc3C(F)(F)F)CC[C@@H]12 [DUTASTERIDE]
Property: AC50
Result: > 10 µM

Compound: CCC(COC(=O)c1cc(OC)c(OC)c(OC)c1)(c1ccccc1)N(C)C (stereo not drawn)
Property: AC50
Result: > 30 µM

Compound: Nc1ncn([C@H]2C[C@H](O)[C@@H](CO)O2)c(=O)n1
Property: AC50
Result: 19.1 µM

Compound: CCN(CC)CCN1C(=O)CN=C(c2ccccc2F)c2cc(Cl)ccc21
Property: AC50
Result: > 10 µM

Below is a list of compounds. For each, state its recorded AC50.
1. CCOC(=O)O[C@]1(C(=O)OCCl)CC[C@H]2[C@@H]3CCC4=CC(=O)C=C[C@]4(C)[C@H]3[C@@H](O)C[C@@]21C [LOTEPREDNOL ETABONATE]
2. C[C@]12CCC(=O)C(O)=C1CC[C@@H]1[C@@H]2CC[C@]2(C)C(=O)CC[C@@H]12
3. CCCCCC(=O)O[C@]1(C(C)=O)CC[C@H]2[C@@H]3CCC4=CC(=O)CC[C@]4(C)[C@H]3CC[C@@]21C [HYDROXYPROGESTERONE CAPROATE]
4. O=C1CN=C(c2ccccc2)c2cc([N+](=O)[O-])ccc2N1
5. Cc1noc(NS(=O)(=O)c2ccc(N)cc2)c1C
6. CCCCC(=O)O[C@]1(C(=O)CO)[C@@H](C)C[C@H]2[C@@H]3CCC4=CC(=O)C=C[C@]4(C)[C@@]3(F)[C@@H](O)C[C@@]21C [BETAMETHASONE VALERATE]

A.
1. > 30 µM
2. > 30 µM
3. > 30 µM
4. > 10 µM
5. > 10 µM
6. > 10 µM

Give AC50 for each listed item.
1. N[C@@H](CC(=O)N1CCn2c(nnc2C(F)(F)F)C1)Cc1cc(F)c(F)cc1F
2. CC(=O)OCC(=O)[C@@]1(O)[C@H](C)C[C@H]2[C@@H]3CCC4=CC(=O)C=C[C@]4(C)[C@@]3(F)[C@@H](O)C[C@@]21C [DEXAMETHASONE ACETATE]
3. COc1ccc(CC2c3cc(OC)c(OC)cc3CC[N+]2(C)CCC(=O)OCCCCCOC(=O)CC[N+]2(C)CCc3cc(OC)c(OC)cc3C2Cc2ccc(OC)c(OC)c2)cc1OC (stereo not drawn)
4. C#C[C@]1(OC(C)=O)CC[C@H]2[C@@H]3CCC4=C/C(=N/O)CC[C@@H]4[C@H]3CC[C@@]21CC [NORGESTIMATE]
5. CN(C)CCC[C@@]1(c2ccc(F)cc2)OCc2cc(C#N)ccc21
6. CC(C)(C)C(=O)OCC(=O)[C@H]1CC[C@H]2[C@@H]3CCC4=CC(=O)CC[C@]4(C)[C@H]3CC[C@]12C [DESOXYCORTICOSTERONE PIVALATE]
7. OC1(c2ccc(Cl)cc2)c2ccccc2C2=NCCN21 (stereo not drawn)

A.
1: > 30 µM; 2: > 10 µM; 3: > 30 µM; 4: > 30 µM; 5: > 30 µM; 6: > 10 µM; 7: > 30 µM
